- System: HOP-62
- assayProcedure: NCI tumour cell line growth inhibition, 48 h
The source made the active and inactive calls. Cut-off read from the data, not from the text of the source: active = GI50 up to about 1.1 µM and inactive = higher. *1 amine or outer side, *2 acyl side, *3 side chain or, on linkers, in order; H or OH if unused. Where a SMILES comes first, the peptide text is derived from it. The star is where a group is joined. γGlu = O=C(O)[CH](CCC(=O)[*:2])N[*:1]; NHOH = ON*
The reply should be one of these categories: active, inactive

CC1(C)C[C@@H]2C1CCC1(C)CC2(O)CC[C@H]1O (stereo partly specified)	inactive
COc1ccc(N2C=Nn3c(nc4sc5c(c4c3=O)CCCC5)C2)cc1	inactive
O=C(/C=C/c1ccccc1)C[C@@H](O)C[C@@H]1CC=CC(=O)O1	inactive
N#CC(C#N)=Cn1c(=S)[nH]c2ccccc21	inactive
O=c1c2cccnc2ncn1CCCN1CCCCC1	inactive
COc1cc2c3c(c1OC)Oc1ccc(cc1)CC1c4c(cc(OC)c(OC)c4Oc4ccc(cc4)CC3N(C)CC2)CCN1C (stereo unspecified)	inactive
CCCCCCCCCC[C@@H](O)[C@@H]1CC[C@@H]([C@@H]2CC[C@@H]([C@@H](O)CCCCCCCCCCC(O)CC3=CC(C)OC3=O)O2)O1 (stereo partly specified)	active
NC(CCC(=O)NC(CCC(=O)NO)C(=O)NCC(=O)O)C(=O)O (stereo unspecified) (γGlu-Glu(NHOH)-Gly-OH; configuration not given here)	inactive
NC(=O)c1c(NC=O)ncn1C1OCC(O)C(O)C1O (stereo unspecified)	inactive
Cc1c2c(c(C)c3c4c(oc13)CCCC4)C=NCC2	inactive

Query block: Hi, do you know how `CNc1ccc2nc(-c3ccc(OC(=O)N(C)C)cc3)cn2c1` came out in this test?
Result block: inactive

Query block: Assay outcome for CC(=O)NC1c2ccccc2C(C)(C)C12CCC1(CC2)OCCO1 (stereo unspecified) : what was it?
Result block: inactive

Query block: State the result this test recorded for `C[Si](C)(C)C#CCOC=C1CC1` .
Result block: inactive

Query block: Look up the recorded call for CC(=O)NC(C)(C)C1CC=C(C)/C(=N\O)C1 (stereo unspecified) in this test.
Result block: inactive

Query block: In this assay, the call recorded for `Cc1cc(C)c2c(n1)S(=O)(=O)N(CCCN1CCN(c3cccc(C(F)(F)F)c3)CC1)c1c-2nn(C)c1C` was what?
Result block: inactive

Query block: Hey, what did the test say about COC1OC(COC(=O)c2cc(O)c(O)c(O)c2)C(OC(=O)c2cc(O)c(O)c(O)c2)C(OC(=O)c2cc(O)c(O)c(O)c2)C1OC(=O)c1cc(O)c(O)c(O)c1 (stereo unspecified) ?
Result block: inactive

Query block: Hi, do you know how COC1(OC)C2C=CC1C([C@](C)(N)CO)C2 (stereo partly specified) came out in this test?
Result block: inactive

Query block: Kindly provide the recorded test outcome for the following molecule: COc1cc(NCC2COc3c(ccc(OC)c3OC)C2=O)c([N+](=O)[O-])cc1OC (stereo unspecified)
Result block: inactive

Query block: Call for entry CC(C)NCC(O)c1cc(OCc2ccccc2)c(OCc2ccccc2)cc1NC(=O)CCC(=O)O (stereo unspecified) :
Result block: inactive

Query block: Could you check what this test reported for COc1cccc2c1C1(O)C2CCCCCCCCCC12OCCCO2 (stereo unspecified) ?
Result block: inactive

Query block: Recorded test call requested for `CCOC(=O)c1cnc(N(C)C)nc1SC(=N)N`
Result block: inactive
